Experiment: Solvent miscibility and compatibility with octyl cyanoacrylate
Type: physicochemical
Set-up: key: V = slightly viscous; VV = viscous; VVV = very viscous; Lyr = layers; Pl = pale; Lt = light; Y = yellow; RX = reacts; Gry = grey; Brn = brown; Blk = black
Conditions: 3 ml solvent + 3 ml OCA, 1 Day
Procedure: Next, the solvents were tested for miscibility and compatibility with cyanoacrylate esters. Briefly, beginning with 3 ml samples each of butyl cyanoacrylate (BCA), octyl cyanoacrylate (OCA) and ethoxyethyl cyanoacrylate (EECA), 3 ml of each solvent was added drop-wise to each cyanoacrylate sample and agitated to aid mixing. Observations of the samples were taken immediately and then at regular intervals over 7 days. […]
observationType: OCA compatibility, 1 Day

                         compound  result
0                        CCC(C)=O       V
1  C1CCOC1 [THF, tetrahydrofuran]      VV
2                        C1CCCCC1       V
3                     CC(=O)C(C)C      VV
